// data source = patent US5925642A

# maps each entry to its pEC50
- Assay target: p-glycoprotein (Homo sapiens, UniProt P08183)
- Construct: Multidrug-resistant and -sensitive cells of the T-lymphoblastoid leukemia cell lines CCRF-VCR 1000 and CCRF-CEM are withdrawn from the cell culture; endogenous in cells; CCRF-CEM (sensitive)
- Sequence (P08183 whole entry): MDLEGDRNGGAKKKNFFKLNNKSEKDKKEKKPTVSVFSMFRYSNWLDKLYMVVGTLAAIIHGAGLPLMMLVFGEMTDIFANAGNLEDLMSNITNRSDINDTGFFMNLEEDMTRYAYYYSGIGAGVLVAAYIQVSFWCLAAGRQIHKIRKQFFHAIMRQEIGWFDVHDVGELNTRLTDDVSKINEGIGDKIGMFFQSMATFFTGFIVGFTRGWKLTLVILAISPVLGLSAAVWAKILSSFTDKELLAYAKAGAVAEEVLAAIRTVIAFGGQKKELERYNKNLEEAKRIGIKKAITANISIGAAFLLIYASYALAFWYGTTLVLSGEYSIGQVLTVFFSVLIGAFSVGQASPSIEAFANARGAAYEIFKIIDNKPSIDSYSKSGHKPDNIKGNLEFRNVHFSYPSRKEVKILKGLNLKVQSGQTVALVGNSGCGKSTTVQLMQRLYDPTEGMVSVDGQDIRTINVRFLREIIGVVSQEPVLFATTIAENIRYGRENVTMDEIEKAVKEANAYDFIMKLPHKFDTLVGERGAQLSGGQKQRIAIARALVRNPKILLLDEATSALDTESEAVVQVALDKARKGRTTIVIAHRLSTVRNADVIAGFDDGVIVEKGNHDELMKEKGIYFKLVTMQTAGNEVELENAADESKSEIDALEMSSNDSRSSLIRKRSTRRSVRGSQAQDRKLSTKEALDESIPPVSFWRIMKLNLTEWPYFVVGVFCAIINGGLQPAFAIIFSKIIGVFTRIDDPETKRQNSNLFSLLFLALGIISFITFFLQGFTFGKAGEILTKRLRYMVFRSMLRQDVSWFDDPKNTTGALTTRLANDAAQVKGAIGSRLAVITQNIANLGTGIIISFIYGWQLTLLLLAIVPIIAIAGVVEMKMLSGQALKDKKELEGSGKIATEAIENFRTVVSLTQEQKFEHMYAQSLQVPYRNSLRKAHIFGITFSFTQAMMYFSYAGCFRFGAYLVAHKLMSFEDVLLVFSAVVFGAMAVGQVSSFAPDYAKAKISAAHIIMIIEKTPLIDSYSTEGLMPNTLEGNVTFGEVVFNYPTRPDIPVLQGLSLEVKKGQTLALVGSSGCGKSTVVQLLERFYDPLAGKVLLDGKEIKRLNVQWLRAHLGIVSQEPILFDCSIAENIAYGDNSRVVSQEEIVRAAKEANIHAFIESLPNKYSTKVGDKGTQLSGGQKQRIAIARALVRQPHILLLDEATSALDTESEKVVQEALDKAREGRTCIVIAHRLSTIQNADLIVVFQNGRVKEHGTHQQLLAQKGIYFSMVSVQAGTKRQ
- Protocol notes: Measurement of P-glycoprotein inhibition (Rhodamine 123 accumulation)
pEC50: −log10 of the molar value. Counter-ions that a name gives are not always drawn.
Observation type: pEC50

Molecule	Value measured
Cc1nc2nc(C)n(-c3ccccc3)c(=O)c2c(-c2cccc([N+](=O)[O-])c2)c1C(=O)CCCCCCCCCCN1CCC(c2ccccc2)(c2ccccc2)CC1 [Compound 2, hydrochloride]	7.20
Cc1nc2ncn(Cc3ccccc3)c(=O)c2c(-c2cccc([N+](=O)[O-])c2)c1C(=O)CCCCCCCN1CCC(c2ccccc2)(c2ccccc2)CC1 [Compound 22]	7.40
CCCCn1c(C)nc2nc(C)c(C(=O)CCCCN3CCC(c4ccccc4)(c4ccccc4)CC3)c(-c3cccc([N+](=O)[O-])c3)c2c1=O [Compound 19]	7.00
Cc1nc2nc(C)n(Cc3ccccc3)c(=O)c2c(-c2cccc([N+](=O)[O-])c2)c1C(=O)CCCCCCCN1CCC(c2ccccc2)(c2ccccc2)CC1 [Compound 23]	7.30
Cc1nc2nc(C)n(CCN3CCCCC3)c(=O)c2c(-c2cccc([N+](=O)[O-])c2)c1C(=O)CCCCCCCCCCN1CCC(c2ccccc2)(c2ccccc2)CC1 [Compound 16]	7.10
